Let's look at some molecules and their measured TGI.
# System: NCI-H226 lung
# Protocol Text: NCI tumour cell line growth inhibition, 48 h

Per the record, `Cc1nc(N)c(N2CCN([N+](=O)[O-])CC2)c(=O)[nH]1` has TGI of > 100 µM

Per the record, `Cc1cc(-c2ccc3nc(C4CCOCC4)n(CCOC(F)(F)F)c3c2)cn(C)c1=O` has TGI of 8.47 µM

Per the record, `CSC(=S)N/N=C(\C)c1ccc(S(=O)(=O)N(C)c2ccccc2)cc1` has TGI of > 100 µM

Per the record, CC(=O)OC1COC(n2ccc3cc(Br)c([N+](=O)[O-])cc32)C(OC(C)=O)C1OC(C)=O (centres undefined) has TGI of 43.9 µM
